System: recombinant guanylate cyclase reporter cell line
PROTOCOL_DESCRIPTION: Action at recombinant guanylate cyclase reporter cell line (CHO reporter cell)
Format: cell-based
CONDITION_DETAILS: MEC = minimal effective concentration; read-out: sGC-activating activity in the CHO reporter cell in vitro, MEC
MEASUREMENT_LABEL: minimal effective concentration

Here are 3 molecules together with their reported answers.
MOLECULE | OBSERVED_RESULT
C[C@H]([C@H](C(=O)Nc1cc(C2CC2C(=O)O)ccc1F)c1ccc(Cl)cc1)C(F)(F)F (single isomer, unassigned) | 0.3 µM
CC(Cc1ccc(F)c(NC(=O)C(c2ccc(Cl)cc2)[C@@H](C)C(F)(F)F)c1)C(=O)O (stereo partly shown) | 0.01 µM
C[C@H]([C@H](C(=O)Nc1cc(C2(CC(=O)O)CCC2)ccc1Cl)c1ccc(Cl)cc1)C(F)(F)F | 0.001 µM

// batch mode: one minimal effective concentration value per listed entry
1. C[C@@H](Cc1ccc(Cl)c(NC(=O)C(c2ccc(Cl)cc2)C2CCC(F)(F)C2)c1)C(=O)O (single isomer, unassigned)
2. C[C@H]([C@H](C(=O)Nc1cc(C[C@H](C)C(=O)O)ccc1Cl)c1ccc(C2CC(F)(F)C2)cc1)C(F)(F)F
3. C[C@H](C(C(=O)Nc1cc(C2(CC(=O)O)CCC2)ccc1Cl)c1ccc(Cl)cc1)C(F)(F)F (stereo partly shown)
4. C[C@H]([C@H](C(=O)Nc1cc([C@H](CC(=O)O)C(F)(F)F)ccc1Cl)c1ccc(Cl)cc1)C(F)(F)F (single isomer, unassigned)

Response line:
["0.03 µM", "0.003 µM", "0.001 µM", "0.001 µM"]
